Catalogue of AC50 readings, one per entry.
Test system: human iPSC-derived 3D BrainSpheres
TEST_DETAILS: BrainSphere MEA assay (HD-MEA, 13-day exposure, concentration-response)
Assay type: cell-based
EXPERIMENTAL_CONDITIONS: Homo sapiens, concentration at 50% maximal activity; Supplement 3 prints it also for curves with hit call 0; read-out: ac50 Spheroid.Burst.Frequency
Reply numerically in µM, unit not repeated.

# query: AC50 of entry ClC1=C(Cl)[C@]2(Cl)[C@@H]3[C@@H]4C[C@@H]([C@H]5O[C@@H]45)[C@@H]3[C@@]1(Cl)C2(Cl)Cl
9.6

* * *

Reported values of Hits for individual entries
Test system: human iPSC-derived 3D BrainSpheres
TEST_DETAILS: BrainSphere MEA assay (HD-MEA, 13-day exposure, concentration-response)
Assay type: cell-based
EXPERIMENTAL_CONDITIONS: total number of active endpoints out of 10 MEA activity metrics; 13-day exposure
Could you respond with only the numeric value?

Need Hits, item ClC1=C(Cl)[C@]2(Cl)[C@@H]3[C@@H]4C[C@@H]([C@H]5O[C@@H]45)[C@@H]3[C@@]1(Cl)C2(Cl)Cl [Dieldrin]
9

Look up Hits for this molecule: CC1(C)[C@H](C(=O)O[C@H](C#N)c2cccc(Oc3ccccc3)c2)[C@@H]1C=C(Br)Br [Deltamethrin]
10

Given the molecule CC(C)(c1ccc(O)cc1)c1ccc(O)cc1 [Bisphenol A] , what is its reported Hits?
9

Form field: reported Hits of [CH3][Hg][Cl] [Methylmercury]
10

GET /values?readout=Hits&item= Brc1ccc(Oc2ccc(Br)cc2Br)c(Br)c1 [BDE- 47]
8

* * *

System: human iPSC-derived 3D BrainSpheres
TEST_DETAILS: BrainSphere MEA assay (HD-MEA, 13-day exposure, concentration-response)
Format: cell-based
EXPERIMENTAL_CONDITIONS: metrics active out of the total number of metrics screened
Listed compounds paired with reported Percent active
Report the value in % with no unit label.

Solved entries:
| SMILES_CODE | UNITS_LABEL | TEST_VALUE |
| --- | --- | --- |
| Brc1ccc(Oc2ccc(Br)cc2Br)c(Br)c1 | % | 80 |
| [CH3][Hg][Cl] | % | 100 |
| C/C(=C/C=C/[C@@H](C)C(=O)O)[C@H]1CN[C@H](C(=O)O)[C@H]1CC(=O)O | % | 90 |

Endpoint output: Percent active of CC1(C)[C@H](C(=O)O[C@H](C#N)c2cccc(Oc3ccccc3)c2)[C@@H]1C=C(Br)Br . Value?
100

Could you share which Percent active value was measured for CC(C)(c1ccc(O)cc1)c1ccc(O)cc1 ?
90

Suppose we examine the compound ClC1=C(Cl)[C@]2(Cl)[C@@H]3[C@@H]4C[C@@H]([C@H]5O[C@@H]45)[C@@H]3[C@@]1(Cl)C2(Cl)Cl ; what Percent active value has been reported?
90

* * *

System: human iPSC-derived 3D BrainSpheres
TEST_DETAILS: BrainSphere MEA assay (HD-MEA, 13-day exposure, concentration-response)
Assay type: cell-based
EXPERIMENTAL_CONDITIONS: tcplfit2 output ACC; activity cutoff in Supplemental Table 1
Procedure: A volume of 1 ml of Tergazyme (1% solution in deionized water) was added to each well of the MaxTwo 6-Well Plate (MaxWell Biosystems) and incubated overnight under constant gyratory shaking (88 RPM) at 37 °C and 5% CO2. […] A custom analysis framework was used to extract the MaxLab Live neuronal metrics for the individual BrainSpheres. […] Ten MaxLab Live neural metrics (endpoints) were evaluated from the MaxLab live ActivityScan and Network Assay in this study. […]
Entries and their ACC Mean.Spheroid.IBI values follow.

Solved cases below.
| SMILES_CODE | ACC Mean.Spheroid.IBI |
| --- | --- |
| [CH3][Hg][Cl] | 6.3 µM |
| C/C(=C/C=C/[C@@H](C)C(=O)O)[C@H]1CN[C@H](C(=O)O)[C@H]1CC(=O)O | 3.1 µM |
| ClC1=C(Cl)[C@]2(Cl)[C@@H]3[C@@H]4C[C@@H]([C@H]5O[C@@H]45)[C@@H]3[C@@]1(Cl)C2(Cl)Cl | 28 µM |
| Brc1ccc(Oc2ccc(Br)cc2Br)c(Br)c1 | 50 µM |
| CC1(C)[C@H](C(=O)O[C@H](C#N)c2cccc(Oc3ccccc3)c2)[C@@H]1C=C(Br)Br | 10 µM |

Shift focus to the following entry.
Suppose we examine the molecule CC(C)(c1ccc(O)cc1)c1ccc(O)cc1 ; what ACC Mean.Spheroid.IBI value has been reported?
44 µM

Sourced from paper PMC12198282
